Would you kindly list inhibition at 20 min, 10 µM for each of these compounds?
biological target: UniProtKB P10635; experiment: Inhibition of human CYP2D6 at 10 uM preincubated for 10 mins followed by NADPH addition and measured after 20 mins by luciferin reagent based luminescence analysis; assay type: ADME; details: time 30 min
Sequence (P10635 whole entry): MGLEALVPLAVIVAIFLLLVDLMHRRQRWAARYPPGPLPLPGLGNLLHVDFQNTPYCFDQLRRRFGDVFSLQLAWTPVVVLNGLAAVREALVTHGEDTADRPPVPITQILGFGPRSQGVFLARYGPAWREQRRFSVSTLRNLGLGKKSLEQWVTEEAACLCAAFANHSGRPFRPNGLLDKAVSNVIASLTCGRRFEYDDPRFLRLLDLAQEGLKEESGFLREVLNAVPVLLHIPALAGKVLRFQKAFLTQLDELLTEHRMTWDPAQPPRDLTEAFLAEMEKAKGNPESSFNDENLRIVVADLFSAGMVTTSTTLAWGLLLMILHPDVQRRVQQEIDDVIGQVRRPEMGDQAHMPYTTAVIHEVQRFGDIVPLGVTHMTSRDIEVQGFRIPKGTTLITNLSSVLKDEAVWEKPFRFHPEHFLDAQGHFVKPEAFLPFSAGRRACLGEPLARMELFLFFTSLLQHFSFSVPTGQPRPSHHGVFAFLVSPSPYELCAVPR
Respond numerically; units are % and should not be typed.

Prompt line: Identify measured inhibition at 20 min, 10 µM corresponding to `CCC[C@@H]1NC(=O)[C@H](CC(C)C)N(C)C(=O)[C@H](CC(C)C)N(C)C(=O)CN(CCO)C(=O)[C@H](CC(C)C)N(C)C(=O)[C@@H](C)NC(=O)[C@@H](CCC(N)=O)NC(=O)[C@H](CC(C)C)N(C)C(=O)[C@H](C(C)C)NC(=O)[C@H](CC(C)C)N(C)C(=O)CN(C)C1=O`
Response line: 35.1

Prompt line: Complete the entry with inhibition at 20 min, 10 µM for `C=C[C@H]1C[N@@]2CC[C@H]1C[C@@H]2[C@@H](O)c1ccnc2ccc(OC)cc12`
Response line: 97.5

* * *

target: hERG (KCNH2) (Homo sapiens, UniProt Q12809); test: in vitro
Sequence (Q12809 whole entry): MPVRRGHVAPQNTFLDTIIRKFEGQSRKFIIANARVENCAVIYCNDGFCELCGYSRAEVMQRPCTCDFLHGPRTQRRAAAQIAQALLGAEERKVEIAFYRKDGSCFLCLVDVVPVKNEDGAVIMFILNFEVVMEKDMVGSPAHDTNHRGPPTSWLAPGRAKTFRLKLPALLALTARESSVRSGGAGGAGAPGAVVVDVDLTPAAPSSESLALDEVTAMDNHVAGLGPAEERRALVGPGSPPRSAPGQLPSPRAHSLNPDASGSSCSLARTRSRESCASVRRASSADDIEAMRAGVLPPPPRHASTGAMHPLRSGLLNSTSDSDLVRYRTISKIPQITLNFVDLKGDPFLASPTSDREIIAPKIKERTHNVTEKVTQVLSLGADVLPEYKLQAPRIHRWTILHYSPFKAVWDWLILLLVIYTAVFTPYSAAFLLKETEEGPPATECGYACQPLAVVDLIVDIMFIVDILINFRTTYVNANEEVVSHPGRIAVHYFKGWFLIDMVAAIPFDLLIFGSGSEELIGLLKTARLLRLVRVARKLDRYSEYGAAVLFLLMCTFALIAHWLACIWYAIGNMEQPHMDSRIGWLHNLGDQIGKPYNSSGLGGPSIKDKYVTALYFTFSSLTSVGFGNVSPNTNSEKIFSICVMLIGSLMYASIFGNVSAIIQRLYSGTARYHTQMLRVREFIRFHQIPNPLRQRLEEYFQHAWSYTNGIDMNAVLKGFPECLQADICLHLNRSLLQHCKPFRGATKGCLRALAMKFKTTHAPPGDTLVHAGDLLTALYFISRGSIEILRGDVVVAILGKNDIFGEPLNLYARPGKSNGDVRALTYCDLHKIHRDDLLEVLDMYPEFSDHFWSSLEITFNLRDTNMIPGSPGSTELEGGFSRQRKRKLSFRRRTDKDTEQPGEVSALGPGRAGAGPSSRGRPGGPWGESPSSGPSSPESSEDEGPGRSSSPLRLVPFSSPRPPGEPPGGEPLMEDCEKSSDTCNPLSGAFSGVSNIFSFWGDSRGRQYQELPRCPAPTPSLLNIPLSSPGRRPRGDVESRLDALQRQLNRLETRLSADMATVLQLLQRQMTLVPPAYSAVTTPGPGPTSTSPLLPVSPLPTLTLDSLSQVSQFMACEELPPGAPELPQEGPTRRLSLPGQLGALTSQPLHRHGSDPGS
Description: Inhibition of hERG at 10 uM incubated for 2 hrs by fluorescence polarization based assay relative to control
measured attribute: inhibition at 2 h, 10 µM (%)
Provide the reading as a plain figure in %.

Prompt line: Report inhibition at 2 h, 10 µM on hERG (KCNH2) (Homo sapiens, UniProt Q12809) for this entry: `CCC[C@@H]1NC(=O)[C@H](CC(C)C)N(C)C(=O)[C@H](CC(C)C)N(C)C(=O)CN(CCO)C(=O)[C@H](CC(C)C)N(C)C(=O)[C@@H](C)NC(=O)[C@@H](CCC(N)=O)NC(=O)[C@H](CC(C)C)N(C)C(=O)[C@H](C(C)C)NC(=O)[C@H](CC(C)C)N(C)C(=O)CN(C)C1=O`
Response line: 19.1

* * *

target: CYP1A2 (Homo sapiens); test: Inhibition of human CYP1A2 at 10 uM preincubated for 10 mins followed by NADPH addition and measured after 20 mins by luciferin reagent based luminescence analysis; format: ADME; conditions: time 30 min
Sequence (P05177 whole entry): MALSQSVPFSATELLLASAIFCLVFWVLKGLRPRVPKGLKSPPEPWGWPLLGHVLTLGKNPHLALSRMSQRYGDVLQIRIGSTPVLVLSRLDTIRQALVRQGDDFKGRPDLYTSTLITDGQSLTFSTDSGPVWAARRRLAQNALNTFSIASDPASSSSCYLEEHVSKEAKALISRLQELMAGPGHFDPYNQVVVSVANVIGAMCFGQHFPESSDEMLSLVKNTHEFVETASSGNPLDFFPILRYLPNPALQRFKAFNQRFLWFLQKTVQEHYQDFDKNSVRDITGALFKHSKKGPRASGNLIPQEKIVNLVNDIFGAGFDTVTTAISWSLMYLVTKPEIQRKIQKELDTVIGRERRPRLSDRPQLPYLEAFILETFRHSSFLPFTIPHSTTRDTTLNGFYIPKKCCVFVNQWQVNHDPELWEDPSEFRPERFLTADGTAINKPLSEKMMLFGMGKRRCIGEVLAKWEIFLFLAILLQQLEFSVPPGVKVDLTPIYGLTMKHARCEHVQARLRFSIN
Please respond with reported inhibition at 20 min, 10 µM for every item in the list.
The answer is to be given in %; state only the numeric part.

Prompt line: Write down inhibition at 20 min, 10 µM measured for item `CCC[C@@H]1NC(=O)[C@H](CC(C)C)N(C)C(=O)[C@H](CC(C)C)N(C)C(=O)CN(CCO)C(=O)[C@H](CC(C)C)N(C)C(=O)[C@@H](C)NC(=O)[C@@H](CCC(N)=O)NC(=O)[C@H](CC(C)C)N(C)C(=O)[C@H](C(C)C)NC(=O)[C@H](CC(C)C)N(C)C(=O)CN(C)C1=O`
Response line: 8.4

Prompt line: Please look at this molecule and report its inhibition at 20 min, 10 µM: `O=c1cc(-c2ccccc2)oc2c1ccc1ccccc12`
Response line: 97.1

* * *

target: UniProtKB Q12809; experiment: Inhibition of hERG incubated for 2 hrs by fluorescence polarization based assay; format: toxicity
measured attribute: EC50 at 2 h

Prompt line: Fill in: EC50 at 2 h on UniProtKB Q12809, entry `CCC[C@@H]1NC(=O)[C@H](CC(C)C)N(C)C(=O)[C@H](CC(C)C)N(C)C(=O)CN(CCO)C(=O)[C@H](CC(C)C)N(C)C(=O)[C@@H](C)NC(=O)[C@@H](CCC(N)=O)NC(=O)[C@H](CC(C)C)N(C)C(=O)[C@H](C(C)C)NC(=O)[C@H](CC(C)C)N(C)C(=O)CN(C)C1=O`
Response line: > 10 µM

* * *

tested on: Hepatitis B virus; experiment: Antiviral activity against Hepatitis B virus infected in human HepG2 cells expressing NTCP assessed as inhibition of viral entry by measuring intracellular HBV DNA preincubated with compound for 2 hrs followed by viral infection and measured after 3 hrs by qPCR analysis; assay type: functional, organism-based
Square brackets hold non-standard residues; d marks the D form. Peptide text beside a SMILES is read from it. NMeL = CN[C@@H](CC(C)C)C(=O)O; NMeV = CN[C@H](C(=O)O)C(C)C; Nva = CCC[C@H](N)C(=O)O; Sar = CNCC(=O)O
measured attribute: IC50 (nM)
Kindly answer with a numeric value in nM, unit omitted.

Prompt line: Complete the entry with IC50 for `CCC[C@@H]1NC(=O)[C@H](CC(C)C)N(C)C(=O)[C@H](CC(C)C)N(C)C(=O)[C@H](CC(C)C)N(C)C(=O)[C@H](CC(C)C)N(C)C(=O)[C@@H](C)NC(=O)[C@H](CCC(N)=O)NC(=O)[C@H](CC(C)C)N(C)C(=O)[C@H](C(C)C)NC(=O)CN(C)C(=O)CN(C)C1=O`
Response line: 440

Prompt line: Annotate the compound `CCC[C@@H]1NC(=O)[C@H](CC(C)C)N(C)C(=O)[C@H](CC(C)C)N(C)C(=O)[C@H](CC(C)C)N(C)C(=O)[C@H](CC(C)C)N(C)C(=O)[C@@H](C)NC(=O)[C@@H](CCC(N)=O)NC(=O)[C@H](CC(C)C)N(C)C(=O)[C@H](C(C)C)NC(=O)CN(CC(C)C)C(=O)CN(C)C1=O` with its measured IC50.
Response line: 420

Prompt line: Identify measured IC50 associated with `CCC[C@@H]1NC(=O)[C@H](CC(C)C)N(C)C(=O)[C@H](CC(C)C)N(C)C(=O)CN(CCO)C(=O)[C@H](CC(C)C)N(C)C(=O)[C@@H](C)NC(=O)[C@@H](CCC(N)=O)NC(=O)[C@H](CC(C)C)N(C)C(=O)[C@H](C(C)C)NC(=O)[C@H](CC(C)C)N(C)C(=O)CN(C)C1=O`
Response line: 360

Prompt line: # return recorded IC50 for entry CCC[C@@H]1NC(=O)[C@H](CC(C)C)N(C)C(=O)[C@H](C(C)C)N(C)C(=O)[C@H](CC(C)C)N(C)C(=O)[C@H](CC(C)C)N(C)C(=O)[C@@H](C)NC(=O)[C@H](C)NC(=O)[C@H](CC(C)C)N(C)C(=O)[C@H](C(C)C)NC(=O)[C@H](CC(C)C)N(C)C(=O)CN(C)C1=O (cyclo(A[dA][NMeL][NMeL][NMeV][NMeL][Nva][Sar][NMeL]V[NMeL]))
Response line: 510

Prompt line: Give IC50 for `C/C=C/C[C@@H](C)[C@@H](O)[C@H]1C(=O)N[C@@H](CC)C(=O)N(C)CC(=O)N(C)[C@@H](CC(C)C)C(=O)N[C@@H](C(C)C)C(=O)N(C)[C@@H](CC(C)C)C(=O)N[C@@H](C)C(=O)N[C@H](C)C(=O)N(C)[C@@H](CC(C)C)C(=O)N(C)[C@@H](CC(C)C)C(=O)N(C)[C@@H](C(C)C)C(=O)N1C`
Response line: 400

Prompt line: Return reported IC50. Input compound: `CCC[C@@H]1NC(=O)[C@H](CC(C)C)N(C)C(=O)[C@H](CC(C)C)N(C)C(=O)[C@H](CC(C)C)N(C)C(=O)CN(CCC(=O)O)C(=O)[C@@H](C)NC(=O)[C@@H](CCC(N)=O)NC(=O)[C@H](CC(C)C)N(C)C(=O)[C@H](C(C)C)NC(=O)[C@H](CC(C)C)N(C)C(=O)CN(C)C1=O`
Response line: 450

* * *

biological target: CYP2C9 (Homo sapiens, UniProt P11712); assay: Inhibition of human CYP2C9 at 10 uM preincubated for 10 mins followed by NADPH addition and measured after 20 mins by luciferin reagent based luminescence analysis; format: ADME; details: time 30 min
Sequence (P11712 whole entry): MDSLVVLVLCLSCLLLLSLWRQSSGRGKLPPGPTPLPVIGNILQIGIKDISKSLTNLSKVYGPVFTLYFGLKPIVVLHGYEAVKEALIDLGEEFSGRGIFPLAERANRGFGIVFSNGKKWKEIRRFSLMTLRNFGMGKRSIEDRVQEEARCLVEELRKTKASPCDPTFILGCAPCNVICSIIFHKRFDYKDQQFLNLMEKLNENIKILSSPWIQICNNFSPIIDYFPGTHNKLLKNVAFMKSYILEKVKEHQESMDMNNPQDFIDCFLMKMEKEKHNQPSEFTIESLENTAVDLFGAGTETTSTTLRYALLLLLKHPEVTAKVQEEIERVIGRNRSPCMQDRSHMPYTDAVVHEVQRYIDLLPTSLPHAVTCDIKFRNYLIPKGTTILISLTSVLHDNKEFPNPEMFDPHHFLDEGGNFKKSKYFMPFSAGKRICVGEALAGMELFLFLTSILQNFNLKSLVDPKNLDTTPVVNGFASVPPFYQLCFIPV
I'd be grateful if you could share measured inhibition at 20 min, 10 µM for these entries.
Report the value in % with no unit label.

Prompt line: Name the recorded inhibition at 20 min, 10 µM of the compound listed here: `Nc1ccc(S(=O)(=O)Nc2ccnn2-c2ccccc2)cc1`
Response line: 94.4

Prompt line: Query inhibition at 20 min, 10 µM for `CCC[C@@H]1NC(=O)[C@H](CC(C)C)N(C)C(=O)[C@H](CC(C)C)N(C)C(=O)CN(CCO)C(=O)[C@H](CC(C)C)N(C)C(=O)[C@@H](C)NC(=O)[C@@H](CCC(N)=O)NC(=O)[C@H](CC(C)C)N(C)C(=O)[C@H](C(C)C)NC(=O)[C@H](CC(C)C)N(C)C(=O)CN(C)C1=O`
Response line: 14.8

* * *

biological target: CYP2C19 (Homo sapiens); experiment: Inhibition of human CYP2C19 at 10 uM preincubated for 10 mins followed by NADPH addition and measured after 20 mins by luciferin reagent based luminescence analysis; format: ADME; settings: time 30 min
Sequence (P33261 whole entry): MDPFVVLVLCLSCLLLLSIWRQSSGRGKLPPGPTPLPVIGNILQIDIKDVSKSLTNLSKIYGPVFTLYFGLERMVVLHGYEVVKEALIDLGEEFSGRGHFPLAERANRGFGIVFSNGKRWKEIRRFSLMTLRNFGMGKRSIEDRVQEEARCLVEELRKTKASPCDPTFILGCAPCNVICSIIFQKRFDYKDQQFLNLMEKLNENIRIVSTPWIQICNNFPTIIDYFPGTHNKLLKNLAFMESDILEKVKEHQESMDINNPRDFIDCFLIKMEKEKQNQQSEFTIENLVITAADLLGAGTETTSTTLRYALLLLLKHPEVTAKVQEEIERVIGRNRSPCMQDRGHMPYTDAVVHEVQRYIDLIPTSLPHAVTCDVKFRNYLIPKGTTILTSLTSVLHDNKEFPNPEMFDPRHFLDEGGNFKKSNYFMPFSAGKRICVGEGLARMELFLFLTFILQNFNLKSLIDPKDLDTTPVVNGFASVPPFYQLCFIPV
measured attribute: inhibition at 20 min, 10 µM (%)
Please state the figure in %; there is no need to write the unit.

Prompt line: Find the measured inhibition at 20 min, 10 µM of `CN(C)CCC=C1c2ccccc2CCc2ccccc21` with CYP2C19 (Homo sapiens) as test system.
Response line: 92.1

Prompt line: Quote CYP2C19 (Homo sapiens) inhibition at 20 min, 10 µM for entry `CCC[C@@H]1NC(=O)[C@H](CC(C)C)N(C)C(=O)[C@H](CC(C)C)N(C)C(=O)CN(CCO)C(=O)[C@H](CC(C)C)N(C)C(=O)[C@@H](C)NC(=O)[C@@H](CCC(N)=O)NC(=O)[C@H](CC(C)C)N(C)C(=O)[C@H](C(C)C)NC(=O)[C@H](CC(C)C)N(C)C(=O)CN(C)C1=O` .
Response line: 29.4
